target under test: human FXR (NR1H4) (Homo sapiens (Human))
Sequence (Q96RI1 whole entry, the tested form may be a part): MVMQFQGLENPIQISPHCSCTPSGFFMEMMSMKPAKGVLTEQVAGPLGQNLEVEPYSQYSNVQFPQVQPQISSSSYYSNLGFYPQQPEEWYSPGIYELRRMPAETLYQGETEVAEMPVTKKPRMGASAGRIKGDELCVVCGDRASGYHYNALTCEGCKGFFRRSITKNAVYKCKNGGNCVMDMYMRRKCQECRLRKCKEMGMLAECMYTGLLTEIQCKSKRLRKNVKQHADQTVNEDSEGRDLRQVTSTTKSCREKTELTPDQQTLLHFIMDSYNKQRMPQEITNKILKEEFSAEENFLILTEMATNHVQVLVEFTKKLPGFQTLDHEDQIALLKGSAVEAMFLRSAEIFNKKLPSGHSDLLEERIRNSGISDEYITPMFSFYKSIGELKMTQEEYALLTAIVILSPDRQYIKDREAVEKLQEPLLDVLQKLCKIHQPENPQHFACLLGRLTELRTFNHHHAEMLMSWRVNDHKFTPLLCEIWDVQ
assay remarks: Human FXR (NR1H4) Assay (Gal4 promoter driven luciferase reporter, Indigo Bioscience kit);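 also: 100% equals the efficacy of CDCA; efficacy normalized to CDCA set as 100%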
Format: cell-based
assay setup: read-out: Efficacy (%)
Experimental: ASSAYS Human FXR (NR1H4) Assay Determination of a ligand mediated Gal4 promoter driven transactivation to quantify ligand binding mediated activation of FXR. […] The principle application of this reporter assay system is to quantify functional activity of human FXR. […] Luminescence intensity of the reaction is quantified using a plate-reading luminometer, Envision. […] Cells were incubated for additional 22 hours before luciferase activities were measured. […] Read time may be 0.5 second (500 mSec) per well.
Answer each item with its documented Emax.
Answer with the number, then the unit.

Ask: Reported Emax, compound CC[C@H]1[C@@H](O)[C@@H]2[C@H](CC[C@]3(C)[C@@H]([C@H](C)CCOC(=O)NS(=O)(=O)c4ccc(OC(F)(F)F)cc4)CC[C@@H]23)[C@@]2(C)CC[C@@H](O)C[C@@H]12 : ____
Result: 411%

Ask: Need Emax of CC[C@H]1[C@@H](O)[C@@H]2[C@H](CC[C@]3(C)[C@@H]([C@H](C)CCOC(=O)N4CCC(O)CC4)CC[C@@H]23)[C@@]2(C)CC[C@@H](O)C[C@@H]12 , thanks.
Result: 257%

Ask: Form field: reported Emax of CC[C@H]1[C@@H](O)[C@@H]2[C@H](CC[C@]3(C)[C@@H]([C@H](C)CCCOC(=O)NS(=O)(=O)C(C)C)CC[C@@H]23)[C@@]2(C)CC[C@@H](O)C[C@@H]12
Result: 345%

src = patent US10457703B2
